assay_system: T1, human CD48 (on primary human peripheral blood mononuclear cells) (human, UniProt P09326 27-220)
T1 sequence: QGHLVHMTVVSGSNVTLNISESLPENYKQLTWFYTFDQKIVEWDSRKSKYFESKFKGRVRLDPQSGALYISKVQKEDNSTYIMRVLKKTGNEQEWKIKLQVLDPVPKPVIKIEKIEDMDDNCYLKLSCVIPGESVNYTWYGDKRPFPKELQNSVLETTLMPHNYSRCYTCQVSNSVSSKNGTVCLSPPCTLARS
measurement_notes: cell-based or functional assay
% Blockade of IFNγ release, MLR; D8 reference
Dear colleague, please return just the value in %, with no unit written.

{"binder": "H4H1707N (antibody, V domains shown, Human IgG4 Fc (H4H) form of 1707N) VH: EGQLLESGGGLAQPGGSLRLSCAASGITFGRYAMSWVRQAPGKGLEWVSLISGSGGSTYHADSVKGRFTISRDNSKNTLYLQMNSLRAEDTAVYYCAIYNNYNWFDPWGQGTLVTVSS VL: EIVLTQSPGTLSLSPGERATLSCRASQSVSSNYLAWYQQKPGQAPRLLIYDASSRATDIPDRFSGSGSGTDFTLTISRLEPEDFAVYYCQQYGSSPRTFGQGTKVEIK", "measure_name": "% Blockade of IFNγ release, MLR; D8", "units": "%", "recorded_measurement": 42}
{"binder": "H4H1775P (antibody, human IgG4, V domains shown, Human IgG4 Fc (H4H)) VH: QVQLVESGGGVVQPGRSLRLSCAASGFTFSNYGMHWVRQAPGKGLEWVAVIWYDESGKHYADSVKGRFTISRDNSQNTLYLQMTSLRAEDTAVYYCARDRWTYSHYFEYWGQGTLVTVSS VL: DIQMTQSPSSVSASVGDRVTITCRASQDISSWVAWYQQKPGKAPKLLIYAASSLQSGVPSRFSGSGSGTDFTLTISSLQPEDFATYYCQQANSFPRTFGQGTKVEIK", "measure_name": "% Blockade of IFNγ release, MLR; D8", "units": "%", "recorded_measurement": 22}
{"binder": "H4H1763N (antibody, human IgG4, V domains shown, Human IgG4 Fc (H4H) form of 1763N) VH: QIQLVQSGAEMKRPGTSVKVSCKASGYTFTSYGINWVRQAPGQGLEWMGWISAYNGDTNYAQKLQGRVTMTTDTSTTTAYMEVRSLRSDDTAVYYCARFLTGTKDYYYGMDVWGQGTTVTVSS VL: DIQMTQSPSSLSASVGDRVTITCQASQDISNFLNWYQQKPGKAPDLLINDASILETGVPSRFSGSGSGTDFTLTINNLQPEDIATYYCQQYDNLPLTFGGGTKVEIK", "measure_name": "% Blockade of IFNγ release, MLR; D8", "units": "%", "recorded_measurement": 30}
{"binder": "H4H1772P (antibody, human IgG4, V domains shown, Human IgG4 Fc (H4H)) VH: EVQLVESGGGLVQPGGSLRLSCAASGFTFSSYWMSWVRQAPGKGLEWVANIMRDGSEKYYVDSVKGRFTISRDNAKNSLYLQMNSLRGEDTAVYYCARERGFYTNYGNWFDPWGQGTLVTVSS VL: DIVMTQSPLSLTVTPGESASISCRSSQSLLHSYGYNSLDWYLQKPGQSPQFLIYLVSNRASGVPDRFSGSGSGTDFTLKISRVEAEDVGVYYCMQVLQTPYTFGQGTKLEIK", "measure_name": "% Blockade of IFNγ release, MLR; D8", "units": "%", "recorded_measurement": 25}

Please look at the following binder next.
Which % Blockade of IFNγ release, MLR; D8 value belongs to H4H1769Pa (antibody, human IgG4, V domains shown) VH: QVQLVQSGAEVKKPGASVKVSCKTSGYTFAGYGITWVRQAPGRGLEWMGWVSAYNGDTDYAQSLQGRVTMTTDTSTSTAYMELRSLRSDDTAMYYCARDRYSSSSGYFDYWGQGTLVTVSS VL: DIQMTQSPSSVSASVGDRVTITCRASQGISSWLAWHQQKPGKAPKVLIYAASSLHSGVPSRFSGSGSGTEFTLTISSLQPEDFATYYCQQANTFPYTFGQGTKLEIK ?
40
